Target: hKv3.1 (Homo sapiens)
Construct: expressed in transfected cells
Experiment: Automated patch clamp electrophysiology (Patchliner), CHO/Kv3.1 cells
Format: cell-based
Settings: 10 μM compound; voltage shift of the IV curve at V1/2; hKv3.1 in CHO-K1, whole-cell
Measurement Label: Kv3.1 Activity at 10 μM Voltage Shift (mV)

The examples below pair each entry with its known result.
CCOc1cc(Oc2cc(N3C(=O)NC(C)(C)C3=O)ncn2)ccc1C	−3.3
Cc1ccc(Oc2cc(N3C(=O)NC(C)(C)C3=O)ncn2)cc1OC(F)(F)F	−2.9

(A) COc1cc(C)cc(Oc2cc(N3C(=O)NC(C)(C)C3=O)ncn2)c1
(B) CC1(C)NC(=O)N(c2cc(Oc3ccc4c(c3)OCCC4)ncn2)C1=O
(C) COc1cc(Oc2cc(N3C(=O)NC4(CCC4)C3=O)ncn2)ccc1C
(D) COc1cc(Oc2cc(N3C(=O)NC(C)(C)C3=O)ncn2)ccc1C
(E) COc1cncc(Oc2cc(N3C(=O)NC(C)(C)C3=O)ncn2)c1
Lookup: Rank the 5 compounds: largest Kv3.1 Activity at 10 μM Voltage Shift (mV) first, smallest last. Labels, requested order.
Found: E, A, B, C, D
(E: −0.1 mV, A: −0.2 mV, B: −1.6 mV, C: −3.2 mV, D: −5.5 mV)

---

Molecular target: hKv3.2 (Homo sapiens, UniProt Q96PR1)
Construct: expressed in transfected cells
Sequence (Q96PR1 whole entry): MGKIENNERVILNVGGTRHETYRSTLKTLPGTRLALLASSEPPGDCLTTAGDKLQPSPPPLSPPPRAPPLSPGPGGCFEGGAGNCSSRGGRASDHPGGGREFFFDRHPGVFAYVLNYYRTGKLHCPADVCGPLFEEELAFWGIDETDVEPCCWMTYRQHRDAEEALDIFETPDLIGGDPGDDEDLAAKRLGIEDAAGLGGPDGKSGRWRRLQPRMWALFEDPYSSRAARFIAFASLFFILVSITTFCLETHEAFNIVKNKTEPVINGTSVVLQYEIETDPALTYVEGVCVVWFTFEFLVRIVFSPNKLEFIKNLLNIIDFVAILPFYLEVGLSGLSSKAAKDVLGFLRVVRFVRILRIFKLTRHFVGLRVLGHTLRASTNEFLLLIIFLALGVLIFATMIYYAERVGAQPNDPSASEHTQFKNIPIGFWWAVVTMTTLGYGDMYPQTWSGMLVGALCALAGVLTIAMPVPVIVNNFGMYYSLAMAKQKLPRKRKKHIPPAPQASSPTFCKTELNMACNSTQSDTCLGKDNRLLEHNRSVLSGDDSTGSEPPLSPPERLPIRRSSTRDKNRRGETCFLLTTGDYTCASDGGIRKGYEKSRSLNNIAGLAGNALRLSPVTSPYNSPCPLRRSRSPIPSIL
Test: Automated patch clamp electrophysiology (Patchliner), CHO/Kv3.2 cells
Assay type: cell-based
Settings: 10 μM compound; voltage shift of the IV curve at V1/2; hKv3.2 in CHO-K1, whole-cell
Measurement Label: Kv3.2 Activity at 10 μM Voltage Shift (mV)

The examples below pair each entry with its known result.
COc1cc(Oc2nccc(N3C(=O)NC(C)(C)C3=O)n2)ccc1C(F)(F)F [Example 65]	−2.8
COc1cc(Oc2nccc(N3C(=O)NC(C)(C)C3=O)n2)ccc1Cl [Example 66]	−3.5

(a) COc1cc(Oc2cncc(N3C(=O)NC(C)(C)C3=O)n2)ccc1C [Example 53]
(b) COc1cc(Oc2cc(N3C(=O)NC4(CCCCC4)C3=O)ncn2)ccc1F [Example 15]
Lookup: Form field 'greater Kv3.2 Activity at 10 μM Voltage Shift (mV)' accepts a or b ; which applies? Indicate which entry you chose by stating its label.
Found: b

---

Biological target: hKv3.2 (Homo sapiens, UniProt Q96PR1)
Construct: expressed in transfected cells
Assay: Automated patch clamp electrophysiology (Patchliner), CHO/Kv3.2 cells
Type: cell-based
Details: 10 μM compound; voltage shift of the IV curve at V1/2; hKv3.2 in CHO-K1, whole-cell
Measurement Label: Kv3.2 Activity at 10 μM Voltage Shift (mV)

The examples below pair each entry with its known result.
CC[C@H]1NC(=O)N(c2nccc(Oc3ccc(C)c(OC)c3)n2)C1=O [Example 56]	−4.6
Cc1ccc(Oc2cc(N3C(=O)NC(C)(C)C3=O)ncn2)cc1F [Example 16]	−2.8
COc1cc(Oc2cc(N3C(=O)NC(C)(C)C3=O)ncn2)ccc1C [Example 1]	−4.3
COc1cc(Oc2cc(N3C(=O)NC(C)(C)C3=O)ncn2)ccc1F [Example 13]	−9.2
Cc1ccc(Oc2cc(N3C(=O)NC(C)(C)C3=O)ncn2)c2c1OCC21CC1 [Example 47]	−4.9

(P) COc1cc(Oc2cc(N3C(=O)NC4(CCCC4)C3=O)ncn2)ccc1F [Example 14]
(Q) COc1cc(Oc2nccc(N3C(=O)NC4(CCCCC4)C3=O)n2)ccc1C [Example 74]
(R) CC[C@H]1NC(=O)N(c2nccc(Oc3ccccc3-c3ccccc3)n2)C1=O [Example 58]
(S) COc1cc(Oc2nccc(N3C(=O)NC(C)(C)C3=O)n2)ccc1C [Example 63]
Lookup: Rank the 4 molecules: largest Kv3.2 Activity at 10 μM Voltage Shift (mV) first, smallest last. Labels, requested order.
Found: P, Q, S, R

---

Target: hKv3.1 (Homo sapiens, UniProt P48547)
Construct: expressed in transfected cells
Sequence (P48547 whole entry): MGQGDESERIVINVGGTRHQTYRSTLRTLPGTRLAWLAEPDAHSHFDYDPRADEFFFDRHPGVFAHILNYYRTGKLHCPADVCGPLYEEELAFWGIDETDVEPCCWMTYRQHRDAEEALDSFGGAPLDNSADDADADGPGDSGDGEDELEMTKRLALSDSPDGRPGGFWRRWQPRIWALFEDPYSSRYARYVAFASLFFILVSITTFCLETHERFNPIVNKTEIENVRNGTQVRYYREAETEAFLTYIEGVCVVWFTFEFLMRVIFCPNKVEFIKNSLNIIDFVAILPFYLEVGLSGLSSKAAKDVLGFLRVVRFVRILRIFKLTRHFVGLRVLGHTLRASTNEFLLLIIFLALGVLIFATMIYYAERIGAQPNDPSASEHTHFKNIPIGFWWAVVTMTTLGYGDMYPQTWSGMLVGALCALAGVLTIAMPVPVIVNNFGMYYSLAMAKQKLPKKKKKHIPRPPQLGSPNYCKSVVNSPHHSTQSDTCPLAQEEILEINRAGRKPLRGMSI
Experiment: Automated patch clamp electrophysiology (Patchliner), CHO/Kv3.1 cells
Format: cell-based
Details: 10 μM compound; peak current at voltage step of −10 mV vs vehicle (0.33% DMSO); hKv3.1 in CHO-K1, whole-cell
Measurement Label: Kv3.1 Activity at 10 μM Potentiation (%)

(P) COc1cc(Oc2cc(N3C(=O)NC4(CCC4)C3=O)ncn2)ccc1C [Example 5]
(Q) CC[C@H]1NC(=O)N(c2nccc(Oc3ccc(C#N)cc3C(C)(C)C)n2)C1=O [Example 57]
Lookup: Hi! Which is lower in terms of Kv3.1 Activity at 10 μM Potentiation (%), the first one P or the second one Q ? Indicate which entry you chose by stating its label.
Found: Q

---

Biological target: hKv3.1 (Homo sapiens, UniProt P48547)
Construct: expressed in transfected cells
Assay: Automated patch clamp electrophysiology (Patchliner), CHO/Kv3.1 cells
Assay type: cell-based
Conditions: 10 μM compound; voltage shift of the IV curve at V1/2; hKv3.1 in CHO-K1, whole-cell
Measurement Label: Kv3.1 Activity at 10 μM Voltage Shift (mV)

The examples below pair each entry with its known result.
COc1c(C)cccc1Oc1cc(N2C(=O)NC(C)(C)C2=O)ncn1	−1.7
COc1ccccc1Oc1cc(N2C(=O)NC(C)(C)C2=O)ncn1	−2.2
CC[C@H]1NC(=O)N(c2ccnc(Oc3ccc(C)c(OC)c3)n2)C1=O	−1.1

(1) Cc1ccc(Oc2cc(N3C(=O)NC(C)(C)C3=O)ncn2)cc1F
(2) CC(C)c1cc(Oc2ccnc(N3C(=O)NC(C)(C)C3=O)n2)ccc1C#N
(3) COc1cc(Oc2cc(N3C(=O)NC4(CCCCC4)C3=O)ncn2)ccc1F
Lookup: List the 3 entries from lowest Kv3.1 Activity at 10 μM Voltage Shift (mV) to highest Kv3.1 Activity at 10 μM Voltage Shift (mV) value. Labels, requested order.
Found: 1, 3, 2
(1: −4.2 mV, 3: −2.7 mV, 2: −1.6 mV)

---

Molecular target: hKv3.2 (Homo sapiens)
Construct: expressed in transfected cells
Test: Automated patch clamp electrophysiology (Patchliner), CHO/Kv3.2 cells
Assay type: cell-based
Conditions: 10 μM compound; peak current at voltage step of −10 mV vs vehicle (0.33% DMSO); hKv3.2 in CHO-K1, whole-cell; read-out: Kv3.2 Activity at 10 μM Potentiation (%)
Method: hKv3.1, hKv3.2, hKv3.3, and hKv3.4 were stably expressed in CHO-K1 (Chinese hamster ovary) cells and kept under constant antibiotic selection. […] The recordings were analysed and selected using peak current amplitude (>100 pA at the −10 mV voltage step) in the absence of compound to eliminate unsuitable cells from analysis. Peak current amplitude was measured and recorded for each voltage step and data was normalised to the maximum current at +60 mV. […]
Measurement Label: activation at 10 µM (%)

COc1cc(Oc2cc(N3C(=O)NC(C)(C)C3=O)ncn2)ccc1C [Example 1]	25
COc1cc(Oc2nccc(N3C(=O)NC(C)(C)C3=O)n2)ccc1C [Example 63]	25
Cc1ccc(Oc2cc(N3C(=O)NC(C)(C)C3=O)ncn2)cc1F [Example 16]	24
COc1cc(Oc2cc(N3C(=O)NC(C)(C)C3=O)ncn2)ccc1F [Example 13]	86
COc1cc(Oc2nccc(N3C(=O)NC(C)(C)C3=O)n2)ccc1C(F)(F)F [Example 65]	35

(I) COc1cc(Oc2cc(N3C(=O)NC4(CCCC4)C3=O)ncn2)ccc1F [Example 14]
(II) COc1cc(Oc2ccnc(N3C(=O)NC4(CCCCC4)C3=O)n2)ccc1C [Example 50]
Lookup: Hi! Which is lower in terms of activation at 10 µM, the first one I or the second one II ? Indicate which entry you chose by stating its label.
Found: II

(P) Cc1ccc(Oc2cc(N3C(=O)NC(C)(C)C3=O)ncn2)c2c1OCC21CC1 [Example 47]
(Q) COc1cc(Oc2cc(N3C(=O)NC4(CCCCC4)C3=O)ncn2)ccc1F [Example 15]
Lookup: Form field 'greater activation at 10 µM' accepts P or Q ; which applies? Indicate which entry you chose by stating its label.
Found: P
(P: 54%, Q: 1%)

---

Target: hKv3.1 (Homo sapiens, UniProt P48547)
Construct: expressed in transfected cells
Test: Automated patch clamp electrophysiology (Patchliner), CHO/Kv3.1 cells
Type: cell-based
Conditions: 10 μM compound; voltage shift of the IV curve at V1/2; hKv3.1 in CHO-K1, whole-cell
Measurement Label: Kv3.1 Activity at 10 μM Voltage Shift (mV)

CC[C@@]1(C)NC(=O)N(c2cc(Oc3ccc(C)c(OC)c3)ncn2)C1=O [Example 2]	−1.9
CC[C@@]1(C)NC(=O)N(c2nccc(Oc3ccc(C)c(OC)c3)n2)C1=O [Example 48]	−2.1
CCc1cc(Oc2cc(N3C(=O)NC(C)(C)C3=O)ncn2)ccc1C [Example 30]	−2.1

---

Molecular target: hKv3.1 (Homo sapiens)
Construct: expressed in transfected cells
Experiment: Automated patch clamp electrophysiology (Patchliner), CHO/Kv3.1 cells
Format: cell-based
Conditions: 10 μM compound; voltage shift of the IV curve at V1/2; hKv3.1 in CHO-K1, whole-cell
Measurement Label: Kv3.1 Activity at 10 μM Voltage Shift (mV)

COc1cc(Oc2ccnc(N3C(=O)NC(C)(C)C3=O)n2)ccc1C	−2.0
Cc1ccc(Oc2cc(N3C(=O)NC(C)(C)C3=O)ncn2)cc1OC(C)C	−2.0

Taken from patent US12139473B2.
